Exercise: for every item that follows, state its recorded melting point.

The following molecules have reported results that may help.
Prompt: # return recorded melting point for input CC(=O)c1cccc2cc[nH]c12
Completion: 65 to 66 °C

Prompt: # return recorded melting point for input CC(C)(C)OC(=O)CN1CC(c2cccs2)SCC(N2C(=O)c3ccccc3C2=O)C1=O (centres undefined)
Completion: 151 to 152 °C

Prompt: # return recorded melting point for input CCO/C(=N/O)C1Cc2cc(C(=O)CC)c(O)c(Cl)c2O1 (centres undefined)
Completion: 146 to 147 °C

Prompt: # return recorded melting point for input CC(C)(C)C1(O)CCN(CC2c3ccccc3CCc3ccccc32)CC1
Completion: 96 to 98.5 °C

Prompt: # return recorded melting point for input Cc1ccc(-c2ncc(N(CCCCOCC(=O)O)C(C)C)nc2-c2ccc(C)cc2)cc1
Completion: 155 to 156 °C

Prompt: # return recorded melting point for input CCOC(=O)c1cc2c(nc1N)CCN(Cc1ccccc1)C2
Completion: 141 to 143 °C

Take each entry in turn and give its melting point.
1. O=C(O)CCc1cc2cc(Cl)ccc2n1S(=O)(=O)c1ccc2c(c1)CCN2
2. COc1cc(OC)c2c(=O)[nH]c(-c3cc(C)c(OCCN4CC(NC(C)=O)C4)c(C)c3)nc2c1
3. CCOC(=O)C(O)(Cc1ccc2ccccc2n1)C(=O)OCC

Completion:
1. 157 °C
2. 112 to 114 °C
3. 71 to 72 °C

Take each entry in turn and give its melting point.
1. CONC(=O)Nc1ccc(-c2sc3c(c2CN(C)C(C)c2ccccc2)c(=O)n(-c2ccc(F)cn2)c(=O)n3Cc2c(F)cccc2F)cc1 (centres undefined)
2. COC(=O)c1cc(-c2ccccc2)c(=O)n2c1-c1sccc1S(=O)(=O)C=C2
3. CC(C)(C)c1cc(NC(=O)c2csc(-c3ccc([N+](=O)[O-])cc3)n2)cc(C(C)(C)C)c1O
4. Cn1nnc(-c2cc(-c3ccc(F)cc3)sc2-c2ccc(F)cc2)n1
5. O=C1Nc2cc([N+](=O)[O-])ccc2OC1CCO (centres undefined)
6. CCOC(=O)c1c(C)cc2nc(C)n(-c3ccccc3C)c(=O)c2c1C

Completion:
128 to 130 °C
241 to 243 °C
262 to 264 °C
150 to 152 °C
174 to 175 °C
129 to 130 °C

###

PARAMETER: melting point

Prompt: # return recorded melting point for input COc1cc(OC)c(C23CC4CC(CC(C4)C2)C3)cc1C(=O)Oc1ccc(C(=O)O)cc1
Completion: 236 to 238 °C

Take each entry in turn and give its melting point.
1. CCCC(CCC)N(C[C@H]1CC[C@H](CN(C(=O)Nc2ccc(N(C)C)cc2)C(CCC)CCC)CC1)C(=O)Nc1ccc(N(C)C)cc1
2. CC1=NCC(=S)Nc2ccc(Cl)cc21
3. CCCCCCCCCCCCCCC(=O)Oc1ccc2cc(C(=N)N)ccc2c1
4. C/C(=C\C(=O)Nc1ccccc1C(=O)O)c1ccc(OC(F)F)c(OC(F)F)c1
5. O=C(Nc1cccc2c1C(=O)c1c-2n[nH]c1C1CCN(C(=O)Oc2ccccc2)CC1)NN1CCOCC1

Completion:
1: 173 to 176 °C; 2: 201 to 203 °C; 3: 153 °C; 4: 170 to 173 °C; 5: 250 to 252 °C

###

PARAMETER: melting point

The following molecules have reported results that may help.
Prompt: # return recorded melting point for input COc1ccc2c(-c3ccccc3F)noc2c1
Completion: 101 to 103 °C

Prompt: # return recorded melting point for input Cc1ccc(C2C(=O)Oc3c2cc(C(C)(C)C)cc3C(C)(C)C)cc1 (stereo not given)
Completion: 130 to 133 °C

Take each entry in turn and give its melting point.
1. CC(C)c1noc([C@]2(C)CC[C@H](NCC(=O)N3C[C@@H](F)C[C@H]3C#N)C2(C)C)n1
2. O=C1Nc2c(F)cc(F)cc2C1=O
3. CCOC(=O)N1CCC(O)(CN)CC1
4. CCOC(=O)CC(O)CC(O)C=Cc1c(C(C)C)sc(-c2ccccc2)c1-c1ccc(F)cc1 (stereo not given)

Completion:
1: 82 to 85 °C; 2: 188 to 194 °C; 3: 82 °C; 4: 123 to 125 °C

Take each entry in turn and give its melting point.
1. CNC(=O)c1ccccc1Nc1nc(Nc2ccc3c(c2)CCN(CC(C)(C)F)CC3)ncc1Cl
2. CC1N=C(c2ccccc2)OC(c2ccccc2)C1OC(=O)Nc1ccccc1 (stereo not given)
3. COC(=O)c1cc(I)cc(C)c1OC
4. C[C@@H]1N=C(c2ccccc2)c2cc(C#CCCCC(=O)O)ccc2N(C)C1=O
5. Cc1ccc2c(c1)c1cc(-c3ccc(Cl)cc3Cl)c(=O)n(C)c1n2CCO
6. Cc1nc2cc(OCc3ccccc3)c(OCc3ccccc3)cc2nc1C(=O)OCc1ccccc1
7. COc1cc([N+](=O)[O-])ccc1S(=O)(=O)N1C(=O)C(N)(c2ccccc2Cl)c2cc(Cl)ccc21 (stereo not given)
8. COc1ccc(C(Cc2ccccc2)C2=C(C)N=NC2=O)cc1OC1CCCC1 (stereo not given)

Completion:
1. 207 to 210 °C
2. 150 °C
3. 55 to 57 °C
4. 62 to 63 °C
5. 240 °C
6. 137 to 139 °C
7. 229 °C
8. 88 to 90 °C

Take each entry in turn and give its melting point.
1. Cc1ccc(Cl)cc1-c1cc(F)cc2c1O[C@@H](CN)C2
2. CN(C)C(=O)n1nc(NC=O)c2cc(C(F)(F)F)ccc21
3. Brc1cccc(Nc2nc(OCC3CCCCC3)c3[nH]cnc3n2)c1
4. Cc1ccc(-c2ccc(/C=C/C(=O)O)o2)cc1
5. CCC1(CC)C(=O)ON(C(=O)c2cc(OC)c(OC)c(OC)c2)C1=O
6. N#Cc1cccc(-c2cc(-c3ccc(C#N)cc3[N+](=O)[O-])no2)c1

Completion:
1: 148 to 150 °C; 2: 198 to 200 °C; 3: 204 to 207 °C; 4: 183 to 184 °C; 5: 103 to 106 °C; 6: 235 to 238 °C

###

Exercise: for every item that follows, state its recorded melting point.

The following compounds have reported results that may help.
Prompt: # return recorded melting point for input CCOC(=O)Oc1ccc(S(=O)(=O)N2c3cc(F)c(F)cc3-n3cccc3C2CC)cc1 (centres undefined)
Completion: 105 to 107 °C

Prompt: # return recorded melting point for input CC(CN1CCN(C)CC1)OC(=O)c1c[nH]c2ccccc12 (centres undefined)
Completion: 166 °C

Prompt: # return recorded melting point for input COc1c(C(=O)O)nc(-c2ccc(Cl)c(OC)c2F)c(F)c1N
Completion: 143 to 146 °C

Prompt: # return recorded melting point for input CN(C)CC1CCCCN1C(=O)c1ccc(-c2[nH]nc3c2C(=O)c2c(NC(=O)NN4CCOCC4)cccc2-3)s1 (centres undefined)
Completion: > 300 °C

Prompt: # return recorded melting point for input O=C(Oc1ccccc1)N1C=CC(c2c(-c3ccc(F)cc3)nc3n2CCS3)C=C1
Completion: 164 to 166 °C

Prompt: # return recorded melting point for input Cc1cc(C)c2c(c1C)OCC2c1ccc(C=O)cc1 (centres undefined)
Completion: 87 to 88 °C

Prompt: # return recorded melting point for input CCOC(=O)NCC1CO1 (centres undefined)
Completion: 75 to 78 °C

Prompt: # return recorded melting point for input C=Cc1cc(CNC(=O)Nc2ccc(C(C)(C)C)cc2)cc(F)c1NS(C)(=O)=O
Completion: 167 to 170 °C

# evaluate next
Prompt: # return recorded melting point for input COc1ccc(C2=NNC(=O)[C@H]3CC=CC[C@@H]23)cc1Cl (relative stereo)
Completion: 183 to 185 °C

###

Exercise: for every item that follows, state its recorded melting point.

The following compounds have reported results that may help.
Prompt: # return recorded melting point for input COc1ccc(C(=O)Nc2cc(NC(=O)c3cccc(N(C)C)c3)ccc2Br)cc1OC
Completion: 184 °C

Prompt: # return recorded melting point for input OC1CSC(Oc2cccc(-c3ccc(F)cn3)c2)C(O)C1O (stereo not given)
Completion: 168 to 201 °C

Prompt: # return recorded melting point for input O=C(O)C1=C(c2ccccc2)c2cc(Br)ccc2CO1
Completion: 205 to 206 °C

Prompt: # return recorded melting point for input Cc1ccccc1C1C(C#N)=C(c2cccs2)Nc2n[nH]cc21 (stereo not given)
Completion: 276 °C

Take each entry in turn and give its melting point.
1. CCOC(=O)c1cnc2sccc2c1O
2. Cc1cc(C)cc(NC(=O)CN2CCN(c3ncccc3C#N)CC2)c1
3. COC(=O)c1ccc(C#CC(=O)c2ccc3c(c2)CCCC3(C)C)cc1O
4. NC(c1ccccc1)c1ccc(C(N)c2ccc(C(N)c3ccccc3)cc2)cc1 (stereo not given)

Completion:
["137 to 139 °C", "139 to 140 °C", "89 to 90 °C", "182 to 185 °C"]

Take each entry in turn and give its melting point.
1. O=C(O)CCCCC(=O)NCCc1ccccc1
2. N#Cc1ccc(N(Cc2ccc(O)c(Br)c2)n2cnnc2)cc1-c1ccoc1

Completion:
110 to 111 °C
200 to 201 °C
